Answer each item with its documented IC50.
# study-system: CCK-2R (Rattus norvegicus, UniProt P30553)
# Construct: The CCK-2R expressing rat pancreatic tumor cells AR4-2J; host or cells: AR4-2J rat pancreatic tumor cells
# Sequence (P30553 1-452): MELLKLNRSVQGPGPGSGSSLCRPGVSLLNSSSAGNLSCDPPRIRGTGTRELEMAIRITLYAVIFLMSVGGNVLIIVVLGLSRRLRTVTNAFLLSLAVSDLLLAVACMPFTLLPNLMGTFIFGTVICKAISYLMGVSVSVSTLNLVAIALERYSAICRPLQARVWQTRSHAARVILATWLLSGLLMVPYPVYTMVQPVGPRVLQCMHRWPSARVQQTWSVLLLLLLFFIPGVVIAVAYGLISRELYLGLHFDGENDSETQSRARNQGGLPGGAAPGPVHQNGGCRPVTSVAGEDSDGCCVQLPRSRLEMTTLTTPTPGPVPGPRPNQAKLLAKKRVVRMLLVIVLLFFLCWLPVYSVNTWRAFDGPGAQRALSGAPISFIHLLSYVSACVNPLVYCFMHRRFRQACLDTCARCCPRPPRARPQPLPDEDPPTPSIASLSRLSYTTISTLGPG
# assay: Determination of IC50: CCK-2R affinity on AR4-2J cells, competition with [^177Lu]Lu-DOTA-PP-F11N
# Format: binding
# condition-details: AR4-2J cells; ^natLu-labeled; read-out: IC50 [nM] (n = 3), ^natLu-labeled
Starred links: 1 amine or outer side, 2 acyl side, 3 side chain; linkers in the order of their positions; H or OH if unused. Non-standard residues stand in square brackets, D forms with d. Residues, ends and D or L forms follow the SMILES beside them. *: point of attachment. Benzoyl(4-SiFtBu2) = CC(C)(C)[Si](F)(c1ccc(C(=O)*)cc1)C(C)(C)C; DOTA = O=C(O)CN1CCN(CC(=O)O)CCN(CC(=O)*)CCN(CC(=O)O)CC1; d(γGlu) = O=C(O)[C@@H](CCC(=O)[*:2])N[*:1]; PEG8 = NCCOCCOCCOCCOCCOCCOCCOCCOCCC(=O)O; 1Nal = N[C@@H](Cc1cccc2ccccc12)C(=O)O; NMeNle = CCCC[C@H](NC)C(=O)O; PEG4 = NCCOCCOCCOCCOCCC(=O)O; dDap = NC[C@@H](N)C(=O)O
Dear colleague, please return just the value in nM, with no unit written.

Kindly note: CCK-2R (Rattus norvegicus, UniProt P30553), CCCC[C@@H](C(=O)N[C@@H](CC(=O)O)C(=O)N[C@@H](Cc1cccc2ccccc12)C(N)=O)N(C)C(=O)[C@H](Cc1c[nH]c2ccccc12)NC(=O)CCOCCOCCOCCOCCNC(=O)CC[C@@H](NC(=O)CCOCCOCCOCCOCCOCCNC(=O)CC[C@@H](NC(=O)[C@@H](CNC(=O)C[N+](C)(C)Cc1ccc([Si](F)(C(C)(C)C)C(C)(C)C)cc1)NC(=O)CN1CCN(CC(=O)O)CCN(CC(=O)O)CCN(CC(=O)O)CC1)C(=O)O)C(=O)O [DOTA-rhCCK-91] , IC50 value reported: 8.56

// assay CCK-2R (Rattus norvegicus, UniProt P30553), entry CCCC[C@@H](C(=O)N[C@@H](CC(=O)O)C(=O)N[C@@H](Cc1cccc2ccccc12)C(N)=O)N(C)C(=O)[C@H](Cc1c[nH]c2ccccc12)NC(=O)CCOCCOCCOCCOCCNC(=O)CC[C@@H](NC(=O)CCOCCOCCOCCOCCOCCOCCOCCOCCNC(=O)[C@@H](CNC(=O)c1ccc([Si](F)(C(C)(C)C)C(C)(C)C)cc1)NC(=O)CN1CCN(CC(=O)O)CCN(CC(=O)O)CCN(CC(=O)O)CC1)C(=O)O [DOTA-rhCCK-73] ({DOTA}-[dDap](Benzoyl(4-SiFtBu2))[PEG8][d(γGlu)][PEG4]W[NMeNle]D[1Nal]-NH2) , IC50 value = 15.6
